Data credit: patent US20200399250A1

Target: TrkA (Homo sapiens, UniProt P04629)
Sequence (P04629 33-796): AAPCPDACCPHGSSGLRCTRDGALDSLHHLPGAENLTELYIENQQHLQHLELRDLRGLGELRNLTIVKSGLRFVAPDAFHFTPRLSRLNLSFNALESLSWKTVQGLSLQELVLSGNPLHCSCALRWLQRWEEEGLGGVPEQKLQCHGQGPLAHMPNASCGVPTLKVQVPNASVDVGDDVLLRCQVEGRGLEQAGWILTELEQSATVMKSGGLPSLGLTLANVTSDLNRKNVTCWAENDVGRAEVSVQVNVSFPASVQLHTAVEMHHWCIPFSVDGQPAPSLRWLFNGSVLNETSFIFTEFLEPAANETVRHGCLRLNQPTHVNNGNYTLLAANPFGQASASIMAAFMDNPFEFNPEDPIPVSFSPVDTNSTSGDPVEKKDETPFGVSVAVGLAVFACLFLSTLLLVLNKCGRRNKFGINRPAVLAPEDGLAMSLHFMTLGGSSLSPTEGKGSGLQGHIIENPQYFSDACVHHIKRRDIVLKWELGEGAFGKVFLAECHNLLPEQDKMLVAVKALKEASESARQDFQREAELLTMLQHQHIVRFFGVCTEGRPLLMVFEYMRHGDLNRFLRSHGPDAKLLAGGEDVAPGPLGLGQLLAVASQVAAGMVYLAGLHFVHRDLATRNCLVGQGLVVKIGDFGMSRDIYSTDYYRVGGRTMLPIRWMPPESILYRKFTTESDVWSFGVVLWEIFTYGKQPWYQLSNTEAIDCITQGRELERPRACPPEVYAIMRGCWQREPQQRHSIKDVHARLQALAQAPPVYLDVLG
Experiment: KINOMEscan primary screen against TrkA
Type: binding
Conditions: 10 nM compound; % of control
Would you mind telling me the reported % Ctrl. TrkA @10 nM of each entry?
Respond with the bare value in % Ctrl..

Task: Field request: % Ctrl. TrkA @10 nM | item: Cc1cc(Nc2cc(N3CCN(C)CC3)nc(Sc3ccc(NC(=O)C4CC4)cc3)n2)n[nH]1 [Tozasertib, reference compound]
Output: 31

Task: // lookup % Ctrl. TrkA @10 nM for Cc1cc(Nc2cc(N3CCN(C)CC3)nc(Sc3ccccc3)n2)n[nH]1 [Reference 2, reference compound]
Output: 58

Task: Recorded % Ctrl. TrkA @10 nM of CN1CCN(c2cc(Nc3cc(C(C)(C)C)[nH]n3)nc(Sc3ccccc3)n2)CC1 [a8] , please.
Output: 69

Task: Dear colleague, I am looking for the recorded % Ctrl. TrkA @10 nM of the following molecule: Cc1ccc(C)c(CSc2nc(Nc3cc(C)[nH]n3)cc(N3CCN(C)CC3)n2)c1 [b2]
Output: 93

Task: Bench note: what % Ctrl. TrkA @10 nM did Cc1cc(Nc2cc(N3CCN(C)CC3)nc(SCc3cccc4ccccc34)n2)n[nH]1 [b6] show?
Output: 74

Task: Returns the measured % Ctrl. TrkA @10 nM for the input molecule. Input: Cc1cc(Nc2cc(N3CCN(C)CC3)nc(Sc3cccc(C(F)(F)F)c3)n2)n[nH]1 [b5]
Output: 90

Task: Please look up its % Ctrl. TrkA @10 nM: CN1CCN(c2cc(Nc3cc4ccccn4n3)nc(Sc3ccccc3)n2)CC1 [a3]
Output: 93

Task: Please give the measured % Ctrl. TrkA @10 nM for this molecule: CN1CCN(c2cc(Nc3cc(-c4cccc(F)c4)[nH]n3)nc(Sc3ccccc3)n2)CC1 [a1]
Output: 11
